- TESTED TARGET: T1, TIGIT (Homo sapiens (Human), UniProt Q495A1 22-244)
- T1 sequence: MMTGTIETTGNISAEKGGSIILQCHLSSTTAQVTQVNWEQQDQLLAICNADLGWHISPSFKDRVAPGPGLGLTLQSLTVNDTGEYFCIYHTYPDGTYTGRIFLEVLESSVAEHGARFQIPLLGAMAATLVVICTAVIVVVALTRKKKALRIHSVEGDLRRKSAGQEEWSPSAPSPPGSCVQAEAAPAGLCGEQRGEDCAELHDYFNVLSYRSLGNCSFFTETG
- MEASUREMENT DESCRIPTION: flow cytometry, Fc fusion at 100 nM, TIGIT-transfected cells
ATTRIBUTE MEASURED: MFI at 100 nM (MFI)
Give bare numbers, in MFI.

# example entries with known answers
variant CD155 IgV-Fc S42L/S52Q/L104E (Fc fusion, not shown: a dimerising Fc or GST) WPPPGTGDVVVQAPTQVPGFLGDSVTLPCYLQVPNMEVTHVLQLTWARHGEQGSMAVFHQTQGPSYSESKRLEFVAARLGAELRNASLRMFGLRVEDEGNYTCEFVTFPQGSRSVDIWLRVL
1950
variant CD155 IgV-Fc S42A/L104Q/G111R (Fc fusion, not shown: a dimerising Fc or GST) WPPPGTGDVVVQAPTQVPGFLGDSVTLPCYLQVPNMEVTHVAQLTWARHGESGSMAVFHQTQGPSYSESKRLEFVAARLGAELRNASLRMFGLRVEDEGNYTCQFVTFPQRSRSVDIWLRVL
1920
variant CD155 IgV-Fc S52Q (Fc fusion, not shown: a dimerising Fc or GST) WPPPGTGDVVVQAPTQVPGFLGDSVTLPCYLQVPNMEVTHVSQLTWARHGEQGSMAVFHQTQGPSYSESKRLEFVAARLGAELRNASLRMFGLRVEDEGNYTCLFVTFPQGSRSVDIWLRVL
2290
variant CD155 IgV-Fc S42C (Fc fusion, not shown: a dimerising Fc or GST) WPPPGTGDVVVQAPTQVPGFLGDSVTLPCYLQVPNMEVTHVCQLTWARHGESGSMAVFHQTQGPSYSESKRLEFVAARLGAELRNASLRMFGLRVEDEGNYTCLFVTFPQGSRSVDIWLRVL
1910
variant CD155 IgV-Fc S42N/L104Q/G111R (Fc fusion, not shown: a dimerising Fc or GST) WPPPGTGDVVVQAPTQVPGFLGDSVTLPCYLQVPNMEVTHVNQLTWARHGESGSMAVFHQTQGPSYSESKRLEFVAARLGAELRNASLRMFGLRVEDEGNYTCQFVTFPQRSRSVDIWLRVL
2430
variant CD155 IgV-Fc S42Q (Fc fusion, not shown: a dimerising Fc or GST) WPPPGTGDVVVQAPTQVPGFLGDSVTLPCYLQVPNMEVTHVQQLTWARHGESGSMAVFHQTQGPSYSESKRLEFVAARLGAELRNASLRMFGLRVEDEGNYTCLFVTFPQGSRSVDIWLRVL
2070

Would you mind giving MFI at 100 nM for every binder in the list below?
1. variant CD155 IgV-Fc Q62Y (Fc fusion, not shown: a dimerising Fc or GST) WPPPGTGDVVVQAPTQVPGFLGDSVTLPCYLQVPNMEVTHVSQLTWARHGESGSMAVFHQTYGPSYSESKRLEFVAARLGAELRNASLRMFGLRVEDEGNYTCLFVTFPQGSRSVDIWLRVL
2. variant CD155 IgV-Fc S42L/S52L/Q62F/L104Q (Fc fusion, not shown: a dimerising Fc or GST) WPPPGTGDVVVQAPTQVPGFLGDSVTLPCYLQVPNMEVTHVLQLTWARHGELGSMAVFHQTFGPSYSESKRLEFVAARLGAELRNASLRMFGLRVEDEGNYTCQFVTFPQGSRSVDIWLRVL

1: 2530; 2: 2020
